// data source = patent US20240082416A1

assay.overview: Viability assay against CHO cells (MTT colorimetric assay)
Type: cell-based, Chinese hamster
test.conditions: Chinese hamster, CHO cells, 1.56e-007 M; 72 h; replicates n = 1, 2, 3; read-out: % viable cells
Starred links: 1 amine or outer side, 2 acyl side, 3 side chain; linkers in the order of their positions; H or OH if unused. Positions of bridges follow the written chain, without caps; N, C: chain ends. Non-standard residues stand in square brackets, D forms with d. Residues, ends and D or L forms follow the SMILES beside them. Trp(2-yl) = O=C([C@H](Cc1c([*:3])[nH]c2ccccc12)N[*:1])[*:2]; X2 = [N-]=[N+]=N[C@@H]1C[C@@H](C(=O)[*:2])N([*:1])C1; Ile(4R-OH,5-OH) = C[C@H]([C@H](N)C(=O)O)[C@@H](O)CO; Pro(4R-NH2) = N[C@H]1CN[C@H](C(=O)O)C1
viability at 72 h, 1.56e-07 M listing for selected molecules.

[
  {
    "molecule": "CC[C@H](C)[C@@H]1NC(=O)CNC(=O)[C@@H]2Cc3c([nH]c4ccccc34)SC[C@H](NC(=O)CNC1=O)C(=O)N[C@@H](CC(N)=O)C(=O)N1C[C@H](N)C[C@H]1C(=O)N[C@@H]([C@@H](C)[C@@H](O)CO)C(=O)N2 [Compound 6, NH2-Pro-amanitin] (cyclo(CN[Pro(4R-NH2)][Ile(4R-OH,5-OH)][Trp(2-yl)]GIG); thioether 1-5)",
    "unit.descriptor": "%",
    "viability at 72 h, 1.56e-07 M": 95
  },
  {
    "molecule": "CC[C@H](C)[C@@H]1NC(=O)CNC(=O)[C@@H]2Cc3c([nH]c4ccccc34)SC[C@H](NC(=O)CNC1=O)C(=O)N[C@@H](CC(N)=O)C(=O)N1C[C@H](N=[N+]=[N-])C[C@H]1C(=O)N[C@@H]([C@@H](C)[C@@H](O)CO)C(=O)N2 [Compound 3, N3-Pro-amanitin] (cyclo(CN[X2][Ile(4R-OH,5-OH)][Trp(2-yl)]GIG); thioether 1-5)",
    "unit.descriptor": "%",
    "viability at 72 h, 1.56e-07 M": 101
  }
]

###

viability at 72 h, 1e-05 M listing for selected compounds.
assay.overview: Viability assay against CHO cells (MTT colorimetric assay)
Assay type: cell-based, Chinese hamster
test.conditions: Chinese hamster, CHO cells, 1e-005 M; 72 h; replicates n = 1, 2, 3; read-out: % viable cells
Description: (f) Cell culture: Cells were cultured in Minimum Essential Medium Eagle—Alpha Modification (α-MEM) or […] Dulbecco's Modified Eagle Medium (DMEM), purchased from Gibco. […] All cell culture plastic ware was obtained from Coming or Falcon. Cells were cultured at 37° C. in a humidified chamber with 5% CO2. […] To assay cell viability, a nearly confluent tissue culture flask was trypsinized, and the cells were counted following treatment with Trypan blue, using a hemocytometer. […]
Starred links: 1 amine or outer side, 2 acyl side, 3 side chain; linkers in the order of their positions; H or OH if unused. Positions of bridges follow the written chain, without caps; N, C: chain ends. Non-standard residues stand in square brackets, D forms with d. Residues, ends and D or L forms follow the SMILES beside them. Trp(2-yl) = O=C([C@H](Cc1c([*:3])[nH]c2ccccc12)N[*:1])[*:2]; Pro(trans-4-guanidino) = N=C(N)N[C@H]1CN[C@H](C(=O)O)C1; Pro(4R-SH) = O=C([C@@H]1C[C@@H](S[*:3])CN1[*:1])[*:2]; Ile(4R-OH,5-OH) = C[C@H]([C@H](N)C(=O)O)[C@@H](O)CO; X1 = N#C[C@@H]1C[C@@H](C(=O)[*:2])N([*:1])C1

[
  {
    "compound": "CC[C@H](C)[C@@H]1NC(=O)CNC(=O)[C@@H]2Cc3c([nH]c4ccccc34)SC[C@H](NC(=O)CNC1=O)C(=O)N[C@@H](CC(N)=O)C(=O)N1C[C@H](S)C[C@H]1C(=O)N[C@@H]([C@@H](C)[C@@H](O)CO)C(=O)N2 [Compound 5, SH-Pro-amanitin] (cyclo(CN[Pro(4R-SH)][Ile(4R-OH,5-OH)][Trp(2-yl)]GIG); thioether 1-5)",
    "unit.descriptor": "%",
    "viability at 72 h, 1e-05 M": 94
  },
  {
    "compound": "CC[C@H](C)[C@@H]1NC(=O)CNC(=O)[C@@H]2Cc3c([nH]c4ccccc34)SC[C@H](NC(=O)CNC1=O)C(=O)N[C@@H](CC(N)=O)C(=O)N1C[C@H](NC(=N)N)C[C@H]1C(=O)N[C@@H]([C@@H](C)[C@@H](O)CO)C(=O)N2 [Compound 7, Gdn-Pro-amanitin] (cyclo(CN[Pro(trans-4-guanidino)][Ile(4R-OH,5-OH)][Trp(2-yl)]GIG); thioether 1-5)",
    "unit.descriptor": "%",
    "viability at 72 h, 1e-05 M": 100
  },
  {
    "compound": "CC[C@H](C)[C@@H]1NC(=O)CNC(=O)[C@@H]2Cc3c([nH]c4ccccc34)SC[C@H](NC(=O)CNC1=O)C(=O)N[C@@H](CC(N)=O)C(=O)N1C[C@H](C#N)C[C@H]1C(=O)N[C@@H]([C@@H](C)[C@@H](O)CO)C(=O)N2 [Compound 4, CN-Pro-amanitin] (cyclo(CN[X1][Ile(4R-OH,5-OH)][Trp(2-yl)]GIG); thioether 1-5)",
    "unit.descriptor": "%",
    "viability at 72 h, 1e-05 M": 110
  }
]
